- Test system: rodent lifetime carcinogenesis bioassay, tumor incidence TD50
- PROTOCOL: carcinogenic potency in animals, long-term in vivo studies, CPDB compilation (AID 1745844)
- ASSAY_SETUP: mouse; strain B6C3F1; males; in feed; site: Harderian gland; lesion: adenoma; dosed 104 weeks; study length 104 weeks
REPORTED_PROPERTY: TD50
A complete answer gives the number followed by the unit.

# input TD50 lookup needed for Nc1nc(N)c2nc(-c3ccccc3)c(N)nc2n1 , thanks.
# output 235 mg/kg/day

* * *

- System: rodent lifetime carcinogenesis bioassay, tumor incidence TD50
- PROTOCOL: carcinogenic potency in animals, long-term in vivo studies, CPDB compilation (AID 1745844)
- ASSAY_SETUP: mouse; strain NMRI; males; in feed; site: lung; lesion: alveolar/bronchiolar adenoma; dosed 120 weeks; study length 120 weeks
Calls of active or inactive are those of the source. How the calls were made is not given here.
REPORTED_PROPERTY: TD50

# input TD50 lookup needed for O=C(O)c1ccc(N=Nc2ccc(O)c(C(=O)O)c2)cc1 , thanks.
# output 13000 mg/kg/day (inactive)

* * *

- Tested on: rodent lifetime carcinogenesis bioassay, tumor incidence TD50
- PROTOCOL: carcinogenic potency in animals, long-term in vivo studies, CPDB compilation (AID 1745844)
- ASSAY_SETUP: rat; strain F344/DuCrj; males; in feed; site: liver; lesion: neoplastic nodule; dosed 104 weeks; study length 110 weeks
Calls of active or inactive are those of the source. No rule for the calls is given here.
REPORTED_PROPERTY: TD50

# input TD50 lookup needed for CCCCOCCOCCOCc1cc2c(cc1CCC)OCO2 , thanks.
# output 7690 mg/kg/day (inactive)

* * *

- Test system: rodent lifetime carcinogenesis bioassay, tumor incidence TD50
- PROTOCOL: carcinogenic potency in animals, long-term in vivo studies, CPDB compilation (AID 1745844)
- ASSAY_SETUP: rat; strain Fischer 344; males; in feed; site: kidney; lesion: tubular-cell adenocarcinoma; dosed 103 weeks; study length 104 weeks
REPORTED_PROPERTY: TD50

# input TD50 lookup needed for O=P(OCC(Br)CBr)(OCC(Br)CBr)OCC(Br)CBr (stereo unspecified) , thanks.
# output 63.3 mg/kg/day

* * *

- System: rodent lifetime carcinogenesis bioassay, tumor incidence TD50
- PROTOCOL: carcinogenic potency in animals, long-term in vivo studies, CPDB compilation (AID 1745844)
- ASSAY_SETUP: rat; strain Sprague-Dawley; males; inhaled; site: extrahepatic tissue; lesion: angioma; dosed 52 weeks; study length 123 weeks
REPORTED_PROPERTY: TD50

# input TD50 lookup needed for C=CCl , thanks.
# output 31.4 mg/kg/day

* * *

- System: rodent lifetime carcinogenesis bioassay, tumor incidence TD50
- PROTOCOL: carcinogenic potency in animals, long-term in vivo studies, CPDB compilation (AID 1745844)
- ASSAY_SETUP: rat; strain NBL/Cr; males; in drinking water; site: adrenal gland; lesion: pheochromocytoma, benign/malignant; dosed 102 weeks; study length 102 weeks
REPORTED_PROPERTY: TD50

# input TD50 lookup needed for [Cl][Cd][Cl] , thanks.
# output 686 mg/kg/day

* * *

- Test system: rodent lifetime carcinogenesis bioassay, tumor incidence TD50
- PROTOCOL: carcinogenic potency in animals, long-term in vivo studies, CPDB compilation (AID 1745844)
- ASSAY_SETUP: rat; strain Sprague-Dawley; females; in feed; site: intestine; lesion: leiomyosarcoma; dosed 46 weeks; study length 66 weeks
REPORTED_PROPERTY: TD50 (mg/kg/day)
# value in mg/kg/day; strip the unit string

# input Enter reported TD50 observed with rodent lifetime carcinogenesis bioassay, tumor incidence TD50 for O=[N+]([O-])c1ccc(-c2nc(NCCO)c3ccccc3n2)s1
# output 3.84
